# experimental-target: T1, human PVRIG expressed on cells (human, UniProt Q6DKI7 41-326)
# T1 construct: whole, on cells; also called Human PVRIG FACS; cells overexpressing human PVRIG
# T1 sequence (looked up): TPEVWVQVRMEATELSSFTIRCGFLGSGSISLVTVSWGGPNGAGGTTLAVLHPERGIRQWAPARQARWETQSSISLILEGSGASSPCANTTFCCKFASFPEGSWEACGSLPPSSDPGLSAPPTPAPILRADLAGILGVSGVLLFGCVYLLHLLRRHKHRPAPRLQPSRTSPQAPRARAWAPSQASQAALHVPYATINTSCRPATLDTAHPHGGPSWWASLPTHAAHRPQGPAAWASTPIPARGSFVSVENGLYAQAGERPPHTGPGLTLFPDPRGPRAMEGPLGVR
# assay-name: FACS, HEK293 cells overexpressing target
Provide the reported pEC50 of each item.
One number for each entry, as −log10 of the molar value.

Some entries whose results are on file:
Q: Given positive antibody Tab5 (antibody, human IgG4 S228P, kappa, F234A L235A, V domains shown, Variable regions of CPA.7.021 (WO2016134333A1) on human IgG4 (S228P/F234A/L235A/K447A) and human kappa constant regions) VH: EVQLVESGGGVVKPGGSLRLSCAASGFTFGTSSMNWVRQAPGKGLEWVAVISFDGTEIHYADSVKGRFTISRDNSKSTVFLQMNSLRPDDTALYYCAKGSGNIYFYSGMDVWGQGTTVTVSS VL: DIQMTQSPSTLSASVGDRVTITCRAGQSISGWLAWFQQKPGKAPNLLIYETSTLESGVPSRFSGSGSGTEYTLTISSLQPDDFATYYCQQYYSYPLTFGQGTKVEIKR , state its recorded pEC50.
Ans: 8.67

Q: Could you share which pEC50 value was measured for anti-PVRIG antibody 151 (antibody, human IgG4 S228P, F234A L235A, V domains shown, no light chain) VH: HVQLVESGGGSVQAGGSLRLSCVASASGFTYRPYCMAWFRQAPGKEREAVAGIDIFGGTTYADSVKGRFTASRDNAGFSLFLQMNDLKPEDTAMYYCAAGDSPDGRCPPLGQGLNYWGQGTQVTVSS ?
Ans: 11.00

Q: Given the binder anti-PVRIG antibody 38 (antibody, human IgG4 S228P, F234A L235A, V domains shown, no light chain) VH: QVQLVESGGGSVQAGGSLRLSCAASPSTYGPSDMAWFRQAPGKQREGVATISAAGRLTYYTDSVRGRFTISRDNAKNTMYLQMNSLKPEDTAMYYCAADFAGGSSLFADYKYWGQGTQVTVSS , what is its reported pEC50?
Ans: 9.62

We now examine a further binder.
Q: State the recorded pEC50 for this entry: anti-PVRIG antibody 39 (antibody, human IgG4 S228P, F234A L235A, V domains shown, no light chain) VH: QVQLVESGGGSVQAGGSLRLSCAASRYTSRTDCMGWFRQAPGKEREGVAHIDSDGIPRYVESVKGRFTISQDHAKNTLYLQMNSLKPEDSATYYCVVGFKFGDYCAPNDWGQGTQVTVSS
Ans: 11.40
